System: SK-N-SH
METHOD: cells
TEST CONTEXT: Homo sapiens, 96 h, read-out: Inhibition of H^3 Thymidine uptake (IC50 in nM)
Structures can show the parent of a compound that is named as a salt.
METRIC NAME: IC50 (nM)
Just the number in nM, nothing appended.

Name the recorded IC50 for `CO[C@H]1C[C@@H]2CC[C@@H](C)[C@@](O)(O2)C(=O)C(=O)N2CCCC[C@H]2C(=O)O[C@H]([C@H](C)C[C@@H]2CC[C@@H](O)[C@H](OC)C2)CC(=O)[C@H](C)/C=C(\C)[C@@H](O)[C@@H](OC)C(=O)[C@H](C)C[C@H](C)/C=C/C=C/C=C/1C` .
1.33

I'd like to know its IC50. The compound in question is COc1cccc2c1C(=O)c1c(O)c3c(c(O)c1C2=O)C[C@@](O)(C(=O)CO)C[C@@H]3O[C@H]1C[C@H](N)[C@H](O)[C@H](C)O1 [Adriamycin, Adriamycin Hydrochloride]
0.896
